Cited source: PubChem BioAssay

The entries below are paired with their reported composite z-score.
System: Fibrinogen (Alexa647-labelled)
experimentNotes: fibrinogen binders on compound microarrays, profiling panel, artefact control for SMM control-protein annotation, biochemical, small-molecule microarray, 635/667 nm fluorescence (AID 1131);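 also: z-score merges 667 nm fluorescence with per-spot signal-to-noise over triplicate slides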
conditionContext: fibrinogen-A647 binding fluorescence, higher = more signal

molecule	composite z-score
CCOC(=O)[C@H](CC(C)C)NC(=O)CCC1CC(OC(=O)NCc2ccc3c(c2)OCO3)CC2(CCCC(COC(=O)NCC(c3ccccc3)c3ccccc3)O2)O1 (some centres undefined)	0.683
CCOC(=O)[C@H](Cc1ccccc1)NC(=O)CCC1CC(OC(=O)NCCc2ccc(F)cc2)CC2(CCCC(COC(=O)NCc3ccccc3)O2)O1 (some centres undefined)	0.282
COCCNC(=O)OCC1CCCC2(CC(OC(=O)NCc3ccc4c(c3)OCO4)CC(CCC(=O)N[C@@H](C)C(=O)OC)O2)O1 (some centres undefined)	0.592
CCOC(=O)[C@H](CC(C)C)NC(=O)CCC1CC(OC(=O)NCc2cccc3ccccc23)CC2(CCCC(COC(=O)NCCOC)O2)O1 (some centres undefined)	0.959
CCN1C(=O)[C@H]2[C@H]3[C@H](O)[C@H](O)CC(=NNC(=O)OCc4ccc(OC)cc4)[C@@H]3CC[C@H]2C1=O	-0.193
C[C@@H](c1ccccc1)N1C(=O)[C@H]2[C@H]3[C@H](O)[C@H](O)CC(=NOCc4ccccc4)[C@H]3CC[C@H]2C1=O	0.823
C=CC[C@@H]1C=C[C@H](ON=C[C@@H](C)[C@H](OCc2ccccc2)C(C)C)[C@@H](CO)O1	-1.67
CC(C)(C)N1C(=O)[C@H]2[C@H]3[C@H](O)[C@H](O)CC(=NO[C@@H]4O[C@H](CO)[C@@H](O)[C@H](O)[C@H]4O)[C@H]3CC[C@H]2C1=O	-1.06
CC(C)=CCCC(C)=CCON=C1C[C@@H](O)[C@@H](O)[C@@H]2[C@@H]3C(=O)N(c4ccc(F)cc4F)C(=O)[C@@H]3CC[C@@H]12	0.89
C[C@@H](c1ccccc1)N1C(=O)[C@H]2[C@H]3[C@H](O)[C@H](O)CC(=NO[C@@H]4O[C@H](CO)[C@@H](O)[C@H](O)[C@H]4O)[C@@H]3CC[C@H]2C1=O	0.19
CON=C(C)CCC(=O)OC[C@H]1O[C@H](c2ccccc2)C=C[C@@H]1Oc1ccc(OC)cc1	-0.45
O=C(NN=C1C[C@@H](O)[C@@H](O)[C@@H]2[C@@H]3C(=O)N(C[C@@H]4CCCO4)C(=O)[C@@H]3CC[C@H]12)OCc1ccccc1	0.271
C#CCCCON=C1C[C@@H](O)[C@@H](O)[C@@H]2[C@@H]3C(=O)N(C(C)(C)C)C(=O)[C@@H]3CC[C@H]12	0.589
CCOC(=O)[C@H](Cc1ccccc1)NC(=O)CCC1CC(OC(=O)NCc2cccc3ccccc23)CC2(CCCC(COC(=O)NCc3ccccc3)O2)O1 (some centres undefined)	0.0039

* * *

testSystem: Epidermal growth factor receptor (Homo sapiens) (UniProt P00533)
Sequence (P00533 whole entry, looked up): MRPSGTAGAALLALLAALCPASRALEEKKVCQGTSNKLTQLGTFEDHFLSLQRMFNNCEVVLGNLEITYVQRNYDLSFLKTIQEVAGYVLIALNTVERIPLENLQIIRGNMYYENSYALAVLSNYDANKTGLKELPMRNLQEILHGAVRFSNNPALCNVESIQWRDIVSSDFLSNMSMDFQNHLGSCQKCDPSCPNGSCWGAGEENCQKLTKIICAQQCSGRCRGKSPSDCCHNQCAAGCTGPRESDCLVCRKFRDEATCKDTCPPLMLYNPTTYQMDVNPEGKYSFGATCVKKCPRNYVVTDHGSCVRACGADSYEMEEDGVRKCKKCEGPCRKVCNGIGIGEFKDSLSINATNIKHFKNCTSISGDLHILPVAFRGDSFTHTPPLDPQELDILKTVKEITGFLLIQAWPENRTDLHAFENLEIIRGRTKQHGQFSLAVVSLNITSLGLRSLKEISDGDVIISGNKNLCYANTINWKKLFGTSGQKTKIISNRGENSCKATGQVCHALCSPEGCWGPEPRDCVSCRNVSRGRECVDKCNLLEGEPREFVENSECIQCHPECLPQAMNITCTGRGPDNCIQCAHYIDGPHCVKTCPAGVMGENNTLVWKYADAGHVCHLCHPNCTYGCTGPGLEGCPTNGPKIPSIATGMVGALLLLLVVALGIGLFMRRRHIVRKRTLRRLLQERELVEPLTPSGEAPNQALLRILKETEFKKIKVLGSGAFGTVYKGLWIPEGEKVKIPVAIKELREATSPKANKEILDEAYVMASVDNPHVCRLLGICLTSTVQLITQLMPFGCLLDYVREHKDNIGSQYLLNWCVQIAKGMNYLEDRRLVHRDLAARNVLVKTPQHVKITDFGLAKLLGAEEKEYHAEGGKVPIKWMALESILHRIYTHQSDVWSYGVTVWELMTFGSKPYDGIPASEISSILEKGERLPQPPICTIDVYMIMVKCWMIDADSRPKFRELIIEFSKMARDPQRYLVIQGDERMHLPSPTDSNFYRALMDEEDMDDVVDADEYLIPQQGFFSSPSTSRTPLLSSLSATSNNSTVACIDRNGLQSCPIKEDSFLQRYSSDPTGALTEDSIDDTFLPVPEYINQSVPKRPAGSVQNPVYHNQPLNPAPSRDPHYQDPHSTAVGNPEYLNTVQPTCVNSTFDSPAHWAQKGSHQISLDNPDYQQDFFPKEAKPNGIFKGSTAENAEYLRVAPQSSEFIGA
experimentNotes: EGFR binders on small-molecule microarrays, primary screen, biochemical, small-molecule microarray, 635 nm fluorescence (AID 1104);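 also: score merges 667 nm emission intensity with spot signal to noise over triplicate slides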
conditionContext: EGFR binding, higher = more signal
measuredQuantity: composite z-score

molecule	testSystem	measuredQuantity	assayValue
O=C1[C@H]2[C@H]3[C@H](O)[C@H](O)CC(=NOCc4ccccc4)[C@@H]3CC[C@H]2C(=O)N1c1ccc(F)cc1F	Epidermal growth factor receptor (Homo sapiens) (UniProt P00533)	composite z-score	0.208
COC(=O)[C@H]1O[C@@H](c2c(OC)c(OC)c(C)c(OC)c2OC)[C@H](C)[C@@H](O)[C@H]1C	Epidermal growth factor receptor (Homo sapiens) (UniProt P00533)	composite z-score	0.0132
CO[C@H](C1CCCCC1)[C@H](C)C=CCC(=O)OCCCc1ccccc1	Epidermal growth factor receptor (Homo sapiens) (UniProt P00533)	composite z-score	0.471
CCOC(=O)[C@H](CC(C)C)NC(=O)CCC1CC(OC(=O)NCc2ccc3c(c2)OCO3)CC2(CCCC(COC(=O)NCc3cccc(C(F)(F)F)c3)O2)O1 (some centres not stated)	Epidermal growth factor receptor (Homo sapiens) (UniProt P00533)	composite z-score	0.242
C=CC1=C[C@H](O)[C@@H]2O[C@@H]2C12OCCCO2	Epidermal growth factor receptor (Homo sapiens) (UniProt P00533)	composite z-score	-0.547
CC(C)C[C@H](NC(=O)CCC1CC(OC(=O)NCc2cccc3ccccc23)CC2(CCCC(COC(=O)NCc3ccccc3)O2)O1)C(=O)NCC(c1ccccc1)c1ccccc1 (some centres not stated)	Epidermal growth factor receptor (Homo sapiens) (UniProt P00533)	composite z-score	0.667
COc1ccc(O[C@H]2C=C[C@@H](c3ccccc3)O[C@@H]2CON=CC[C@@H]2C=C[C@H](OC(C)=O)[C@@H](COC(C)=O)O2)cc1	Epidermal growth factor receptor (Homo sapiens) (UniProt P00533)	composite z-score	0.238
